What collision cross section was measured for each of the following?
# assayInfo: collision cross section of modified peptide (TIMS, N2, iRT-aligned); higher = larger / more extended gas-phase ion
# conditionParameters: charge state: 2; modification: Malonyl
// units = Å²; emit number, no label

[Q] Consider the sequence SSFAYKDQNENR [_SSFAYK(Malonyl)DQNENR_] and give its measured collision cross section.
[A] 401.56

[Q] Consider the sequence DDSFLGKLGGTLAR [_DDSFLGK(Malonyl)LGGTLAR_] and give its measured collision cross section.
[A] 411.31

[Q] Consider the sequence VYIASSSGSTAIKK [_VYIASSSGSTAIK(Malonyl)K_] and give its measured collision cross section.
[A] 409.24

[Q] Consider the sequence FDDTNPEKEEAK [_FDDTNPEK(Malonyl)EEAK_] and give its measured collision cross section.
[A] 398.04

[Q] Consider the sequence TEVLSPNSKVESK [_TEVLSPNSK(Malonyl)VESK_] and give its measured collision cross section.
[A] 400.58

[Q] Consider the sequence LLEQKTQESQK [_LLEQK(Malonyl)TQESQK_] and give its measured collision cross section.
[A] 397.91

* * *

# assayInfo: collision cross section of unmodified peptide (TIMS, N2, iRT-aligned); higher = larger / more extended gas-phase ion
# conditionParameters: charge state: 3
What collision cross section was measured for each of the following?
// units = Å²; emit number, no label

[Q] Consider the substance VETTVTSLKTK and give its measured collision cross section.
[A] 459.8

[Q] Consider the substance SKLLFSNTAAQK and give its measured collision cross section.
[A] 444.64

[Q] Consider the substance GLPGEKGER and give its measured collision cross section.
[A] 394.07

[Q] Consider the substance SRGGGGNFGPGPGSNFR and give its measured collision cross section.
[A] 460.96

[Q] Consider the substance AVSILPLLGHGVPRLPPGR and give its measured collision cross section.
[A] 563.87

[Q] Consider the substance GEVQVSDKER and give its measured collision cross section.
[A] 439.27

[Q] Consider the substance VHATSTYR and give its measured collision cross section.
[A] 398.18

[Q] Consider the substance GEKGNPGVGTQGPR and give its measured collision cross section.
[A] 437.26

[Q] Consider the substance GFALVGVGSEASSKK and give its measured collision cross section.
[A] 506.74

[Q] Consider the substance VGIDTPDIDIHGPEGKLK and give its measured collision cross section.
[A] 538.36

[Q] Consider the substance LQAAYAGDKADDIQK and give its measured collision cross section.
[A] 497.53

[Q] Consider the substance TPLTHALPGLSEQEGQK and give its measured collision cross section.
[A] 495.4

[Q] Consider the substance KITESVAETAQTIK and give its measured collision cross section.
[A] 480.58

[Q] Consider the substance GRGVGSPEPGPTAPYLGR and give its measured collision cross section.
[A] 517.8

[Q] Consider the substance VNALKNLQVK and give its measured collision cross section.
[A] 436.61

[Q] Consider the substance VRFHNPR and give its measured collision cross section.
[A] 406.2

[Q] Consider the substance VGVEAKQPNSAIR and give its measured collision cross section.
[A] 493.5

[Q] Consider the substance GRGAANDSTQFTVAGR and give its measured collision cross section.
[A] 473.86

* * *

# assayInfo: collision cross section of unmodified peptide (TIMS, N2, iRT-aligned); higher = larger / more extended gas-phase ion
# conditionParameters: charge state: 2
± gives the standard deviation.
What collision cross section was measured for each of the following?
Returns: string containing the numeric result and its unit.

[Q] Consider the sequence DFAFYNPRLQGK and give its measured collision cross section.
[A] 408.01 ± 1.3 Å²

[Q] Consider the sequence RGFGFGGFAISAGK and give its measured collision cross section.
[A] 395.08 ± 0.89 Å²

[Q] Consider the sequence STLEEPNLQPLQR and give its measured collision cross section.
[A] 408.53 ± 0.66 Å²

[Q] Consider the sequence LTSLNVKYNNDK and give its measured collision cross section.
[A] 409.04 ± 2 Å²

[Q] Consider the sequence LNAIYQNNLTK and give its measured collision cross section.
[A] 381.14 ± 0.16 Å²

[Q] Consider the sequence LGNDFHTNKR and give its measured collision cross section.
[A] 369.4 ± 1.5 Å²

[Q] Consider the sequence FGSRGGPGGGFR and give its measured collision cross section.
[A] 358.01 ± 0.11 Å²

[Q] Consider the sequence LGTTPSVYGGAGGRGIR and give its measured collision cross section.
[A] 444.42 ± 1.7 Å²

[Q] Consider the sequence GLPGEPGPRGLLGPK and give its measured collision cross section.
[A] 406.63 ± 0.39 Å²

[Q] Consider the sequence SLIGKVDGTSHVTGK and give its measured collision cross section.
[A] 430.43 ± 0.65 Å²

[Q] Consider the sequence IYELAAGGTAVGTGLNTR and give its measured collision cross section.
[A] 443.72 ± 1 Å²

[Q] Consider the sequence SGYSSPGSPGTPGSR and give its measured collision cross section.
[A] 379.95 ± 0.14 Å²

[Q] Consider the sequence VNALKNLQVK and give its measured collision cross section.
[A] 370.39 ± 1.1 Å²

[Q] Consider the sequence DYQPGITFIVVQKR and give its measured collision cross section.
[A] 447.74 ± 2 Å²

[Q] Consider the sequence GRGGPGPAQR and give its measured collision cross section.
[A] 323.16 ± 0.71 Å²

[Q] Consider the sequence AGQKLIDVNHYAK and give its measured collision cross section.
[A] 420.25 ± 2.7 Å²

[Q] Consider the sequence SLKLNTAEDAK and give its measured collision cross section.
[A] 372.65 ± 1.5 Å²

[Q] Consider the sequence ITLSKHQNVQLPR and give its measured collision cross section.
[A] 434.86 ± 3.1 Å²

[Q] Consider the sequence GGPGSTLSFVGKR and give its measured collision cross section.
[A] 395.98 ± 0.53 Å²

[Q] Consider the sequence SYISSQTNDTHK and give its measured collision cross section.
[A] 399.56 ± 0.14 Å²

[Q] Consider the sequence RGGFAVQAK and give its measured collision cross section.
[A] 337.58 ± 0.46 Å²

[Q] Consider the sequence SGKFTQQDIDEAK and give its measured collision cross section.
[A] 412.77 ± 2.3 Å²

[Q] Consider the sequence VLATQPGPGRGR and give its measured collision cross section.
[A] 368.04 ± 0.27 Å²

[Q] Consider the sequence PRTPTAPAVNLAGAR and give its measured collision cross section.
[A] 406.96 ± 1.8 Å²

[Q] Consider the sequence LVLPSQAQARLPSGEVVK and give its measured collision cross section.
[A] 482.13 ± 2.1 Å²

[Q] Consider the sequence LLIVSTTPYSEKDTK and give its measured collision cross section.
[A] 459.72 ± 2.9 Å²

[Q] Consider the sequence GGQGPPGPQGPIGYPGPR and give its measured collision cross section.
[A] 419.74 ± 1 Å²

[Q] Consider the sequence DLGKFQVATDALK and give its measured collision cross section.
[A] 413.55 ± 3.7 Å²
